Source listed as the supplement of paper PMC9112550.

- System: Escherichia coli TOP10
- test_details: shrunken log2 fold change of peptide-encoding DNA abundance (4.5 h post-induction vs induction); higher = less antimicrobial activity (less host growth inhibition)
- assay_setup: time post-induction: 4.5 h; library: site-saturation at positions 5, 18, 19, 20
Label yes when shrunken log2 fold change >= 0.05; otherwise no.

Worked set:
Does the sequence `RRIRMRPPRLPRPRPRPIDFPRP` have recorded shrunken log2 fold change that is 0.05 or more?
no

Does the sequence `RRIRYRPPRLPRPRPRPHVTPRP` have recorded shrunken log2 fold change that is 0.05 or more?
no

---
Does the sequence `RRIRKRPPRLPRPRPRPLRTPRP` have recorded shrunken log2 fold change that is 0.05 or more?
yes

Does the sequence `RRIRSRPPRLPRPRPRPQGFPRP` have recorded shrunken log2 fold change that is 0.05 or more?
no

Does the sequence `RRIRMRPPRLPRPRPRPSIMPRP` have recorded shrunken log2 fold change that is 0.05 or more?
yes

Does the sequence `RRIRHRPPRLPRPRPRPHPMPRP` have recorded shrunken log2 fold change that is 0.05 or more?
no

Does the sequence `RRIRMRPPRLPRPRPRPLGVPRP` have recorded shrunken log2 fold change that is 0.05 or more?
yes

###

- Tested on: Escherichia coli TOP10
- test_details: shrunken log2 fold change of peptide-encoding DNA abundance (4.5 h post-induction vs induction); higher = less antimicrobial activity (less host growth inhibition)
- assay_setup: time post-induction: 4.5 h; library: site-saturation at positions 5, 18, 19, 20
Kindly note that classification relies on shrunken log2 fold change with these boundaries: lower segment = under -0.05, middle segment = from -0.05 up to 0.2, upper segment = 0.2 and over

Worked set:
Lab log: `RRIRERPPRLPRPRPRPWITPRP` — assign shrunken log2 fold change category
middle segment

Lab log: `RRIRSRPPRLPRPRPRPQTAPRP` — assign shrunken log2 fold change category
middle segment

Lab log: `RRIRTRPPRLPRPRPRPERAPRP` — assign shrunken log2 fold change category
upper segment

---
Lab log: `RRIRYRPPRLPRPRPRPVPCPRP` — assign shrunken log2 fold change category
lower segment

Lab log: `RRIRVRPPRLPRPRPRPPNDPRP` — assign shrunken log2 fold change category
lower segment

Lab log: `RRIRVRPPRLPRPRPRPTSPPRP` — assign shrunken log2 fold change category
middle segment

Lab log: `RRIRPRPPRLPRPRPRPFAHPRP` — assign shrunken log2 fold change category
lower segment

Lab log: `RRIRDRPPRLPRPRPRPAPLPRP` — assign shrunken log2 fold change category
upper segment

Lab log: `RRIRHRPPRLPRPRPRPAPRPRP` — assign shrunken log2 fold change category
upper segment

Lab log: `RRIRGRPPRLPRPRPRPRFAPRP` — assign shrunken log2 fold change category
upper segment

###

- Test system: Escherichia coli TOP10;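 note: peptides expressed intracellularly from a pBAD plasmid library in pooled LB shake-flask culture, induced with 0.3% L-arabinose, DNA abundance read by NGS, three biological replicates, DESeq2 with apeglm shrinkage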
- test_details: shrunken log2 fold change of peptide-encoding DNA abundance (4.5 h post-induction vs induction); higher = less antimicrobial activity (less host growth inhibition)
- assay_setup: time post-induction: 4.5 h; library: site-saturation at positions 5, 18, 19, 20
property: shrunken log2 fold change
Reply with the value as a number alone.

If you can, please state the reported shrunken log2 fold change value of `RRIRSRPPRLPRPRPRPQAIPRP` .
0.0296

If you can, please state the reported shrunken log2 fold change value of `RRIRFRPPRLPRPRPRPSMWPRP` .
-0.579

If you can, please state the reported shrunken log2 fold change value of `RRIRLRPPRLPRPRPRPCNNPRP` .
-0.0778

If you can, please state the reported shrunken log2 fold change value of `RRIRIRPPRLPRPRPRPGWLPRP` .
-0.0831

If you can, please state the reported shrunken log2 fold change value of `RRIRERPPRLPRPRPRPFGKPRP` .
-0.01

---
If you can, please state the reported shrunken log2 fold change value of `RRIRCRPPRLPRPRPRPEVQPRP` .
0.267

If you can, please state the reported shrunken log2 fold change value of `RRIRLRPPRLPRPRPRPVVPPRP` .
0.139

If you can, please state the reported shrunken log2 fold change value of `RRIRQRPPRLPRPRPRPYDGPRP` .
-0.101

If you can, please state the reported shrunken log2 fold change value of `RRIRFRPPRLPRPRPRPEKRPRP` .
-0.0774

If you can, please state the reported shrunken log2 fold change value of `RRIRVRPPRLPRPRPRPNAAPRP` .
0.0557

If you can, please state the reported shrunken log2 fold change value of `RRIRARPPRLPRPRPRPAGEPRP` .
0.921

If you can, please state the reported shrunken log2 fold change value of `RRIRSRPPRLPRPRPRPKWNPRP` .
-0.154

If you can, please state the reported shrunken log2 fold change value of `RRIRMRPPRLPRPRPRPASAPRP` .
1.09
